- Test system: SNB-19 CNS
- assay comment: NCI tumour cell line growth inhibition, 48 h
reported endpoint: TGI

[
  {
    "structure notation": "C[C@@H]1S[C@H](c2ccccc2F)N2Cc3ccccc3N=C12",
    "TGI": "> 100 µM"
  },
  {
    "structure notation": "S=c1[nH]c2ccc(Br)cc2c(=S)s1",
    "TGI": "> 100 µM"
  }
]

As a next step, examine the compound that follows.
Known value: SNB-19 CNS TGI of the compound CC1=C2C(=C[C@H]3[C@]4(C)CCCC(C)(C)[C@H]4CC[C@]34O[C@H]24)OC1=O equals > 100 µM
